Listed here are binders together with their documented kon.
# tested_on: T1, huCTLA4 (antigen of the Octet experiments) (human, UniProt P16410 37-162, limits assumed)
# T1 construct: Construct of the soluble antigen not described; also called the antigen
# experimental_details: BLI (Octet Red96), antibody on anti-hIgG Fc biosensor, huCTLA4 in solution, 1:1 fit
Please make sure the unit comes right after the number.

binder	kon
Humanized HC3 + LC3 (PP4638) (antibody, IgG1, V domains shown, Humanized L3D10; also called H3108 + L3108) VH: QVQLQESGPGLVKPSETLSLTCTVSGFSLTSYGLSWIRQPPGKGLEWIGYIWYDGNTNFHSPLKSRVTISVDTSKNQFSLKLSSVTAADTAVYYCAKTEGHYYGSNYGYYALDYWGQGTLVTVSS VL: DIQMTQSPSSLSASVGDRVTITCRASENIYSNLAWYQQKPGKAPKLLIYAATSLQSGVPSRFSGSGSGTDFTLTISSLQPEDFATYYCQHLWGTPYTFGGGTKVEIK	290000 M⁻¹ s⁻¹

Please find the next binder below.
Inquiry: // returns reported kon for input Humanized HC3 + LC1 (PP4636) (antibody, IgG1, V domains shown, Humanized L3D10; also called H3108 + L3106) VH: QVQLQESGPGLVKPSETLSLTCTVSGFSLTSYGLSWIRQPPGKGLEWIGYIWYDGNTNFHSPLKSRVTISVDTSKNQFSLKLSSVTAADTAVYYCAKTEGHYYGSNYGYYALDYWGQGTLVTVSS VL: DIQMTQSPSSLSASVGDRVTITCRASENIYSNLAWYQQKPGKAPKLLLYAATNLQSGVPSRFSGSGSGTDFTLTISSLQPEDFATYYCQHLWGTPYTFGGGTKLEIK
Reply text: 250000 M⁻¹ s⁻¹
